Tested on: J774A.1 cells
Experiment: Phage display screening (CX7C T7 library) on J774A.1 cells
Details: high throughput sequencing of phage clones bound to J774A.1 cells after three rounds of enrichment; terminal cysteines omitted
List of Count values.
Please reply with the number alone, leaving off any unit.

Worked examples follow.
SUBSTANCE | ASSAYED TARGET | MEASURED PARAMETER | ASSAY VALUE
GRLLRSG | J774A.1 cells | Count | 9124
GRVLRSS | J774A.1 cells | Count | 6774
RVLRSGS | J774A.1 cells | Count | 63428
RSGLRSS | J774A.1 cells | Count | 9519
GRMLRSG | J774A.1 cells | Count | 8922
GGRVLRS | J774A.1 cells | Count | 62028
SVGRSMRS | J774A.1 cells | Count | 7916

Incoming: What measured Count goes with `GGASIT` ?
Outgoing: 8677
